Measured % of cells in phase: G2/M by item
System: Jurkat human leukemia T cells
Test: Cell cycle stage in Jurkat cells (propidium iodide flow cytometry)
Format: cell-based
Conditions: Jurkat, 24 h, 100 μg/ml
quantity kind: % of cells in phase: G2/M (%)

- input sequence: "GGCCGG [SEQ ID NO:43]"
  quantity kind: "% of cells in phase: G2/M"
  experimental value: 18.7
- input sequence: "AGGTGA [SEQ ID NO:31]"
  quantity kind: "% of cells in phase: G2/M"
  experimental value: 17.1
- input sequence: "AACCACAAGCCCAAC (DNA, backbone not given here) [SEQ ID NO:67]"
  quantity kind: "% of cells in phase: G2/M"
  experimental value: 24.6
- input sequence: "GGAAGG (unmodified DNA) [SEQ ID NO:42]"
  quantity kind: "% of cells in phase: G2/M"
  experimental value: 34.1
- input sequence: "GGGGGGGTGGGGGGGTGGGGGGGTGGG (unmodified DNA) [SEQ ID NO:4]"
  quantity kind: "% of cells in phase: G2/M"
  experimental value: 22.3
- input sequence: "GGGTGGGTGGGTGGGTGGGTGGGTGGG [SEQ ID NO:2]"
  quantity kind: "% of cells in phase: G2/M"
  experimental value: 26.4
- input sequence: "TCCATCGCCAAGGAGATCGAGCTGGAGGATCCGTACGAGAAGATC (unmodified DNA) [BCG A-3, reference compound]"
  quantity kind: "% of cells in phase: G2/M"
  experimental value: 21.4
- input sequence: "GGGGGTGGGGGTGGGGGTGGGGGTGGG (unmodified DNA) [SEQ ID NO:3]"
  quantity kind: "% of cells in phase: G2/M"
  experimental value: 23.6
- input sequence: "AAAGAGGGGCATGACCCGGTGCGGGGGTTCTTGCACTCGGCATAG (unmodified DNA) [BCG A-1, reference compound]"
  quantity kind: "% of cells in phase: G2/M"
  experimental value: 12.0
- input sequence: "GTGTGTGTGTGTGTGTGT (unmodified DNA) [SEQ ID NO:18]"
  quantity kind: "% of cells in phase: G2/M"
  experimental value: 16.4
- input sequence: "GTGTGTGTGTGTGTGTGTGTGTGTGTG [SEQ ID NO:1] (chemistry not given here)"
  quantity kind: "% of cells in phase: G2/M"
  experimental value: 0.3
- input sequence: "TTAGGG (phosphodiester backbone) [SEQ ID NO:49, reference compound]"
  quantity kind: "% of cells in phase: G2/M"
  experimental value: 12.8
- input sequence: "GGGTGG [SEQ ID NO:25 phosphorothioate]"
  quantity kind: "% of cells in phase: G2/M"
  experimental value: 24.7
- input sequence: "TTGTTT [SEQ ID NO:26]"
  quantity kind: "% of cells in phase: G2/M"
  experimental value: 32.4
- input sequence: "GTGTGT [SEQ ID NO:10]"
  quantity kind: "% of cells in phase: G2/M"
  experimental value: 0.3
- input sequence: "GTGTGTGTGTGTGTGTGTGTGTGTGTG (DNA, backbone not given here; further chemistry not fully specified) [SEQ ID NO:1 phosphorothioate]"
  quantity kind: "% of cells in phase: G2/M"
  experimental value: 24.5
- input sequence: "GGGTGG [SEQ ID NO:25]"
  quantity kind: "% of cells in phase: G2/M"
  experimental value: 0.0

Taken from patent US20070213291A1.
